# GI50 per entry
test system: T-Rex 293 cell line SC3 cells lacking increased expression of androgen receptor protein; assay: Cellular growth inhibition, T-Rex 293 SC3 cells without doxycycline, CellTiter-Glo; assay type: cell-based; settings: 72 h, T-Rex 293 SC3 cells not exposed to doxycycline, CellTiter-Glo 2.0

Cc1sc2c(c1C)C(c1ccc(Cl)cc1)=N[C@H](CC(=O)NCCOCCOCCOCCOCCOC1CCN(c3ncc(C(=O)N[C@H]4C(C)(C)[C@H](Oc5ccc(C#N)c(Cl)c5)C4(C)C)cn3)CC1)c1nnc(C)n1-2	> 3000 nM

-- ask Please look up its GI50: Cc1sc2c(c1C)C(c1ccc(CN3CC4(CCCN(c5ncc(C(=O)N[C@H]6C(C)(C)[C@H](Oc7ccc(C#N)c(Cl)c7)C6(C)C)cn5)C4)C3)cc1)=N[C@H](Cc1ncco1)c1nnc(C)n1-2
-- reply > 3000 nM

-- ask Please look up its GI50: CCNC(=O)C[C@@H]1N=C(c2ccc(CCCOC3CCN(c4ncc(C(=O)N[C@H]5C(C)(C)[C@H](Oc6ccc(C#N)c(Cl)c6)C5(C)C)cn4)CC3)cc2)c2c(sc(C)c2C)-n2c(C)nnc21
-- reply < 500 nM

-- ask Please look up its GI50: Cc1sc2c(c1C)C(c1ccc(N3CCC[C@H](C(=O)N4CCCC4c4ncc(C(=O)N[C@H]5C(C)(C)[C@H](Oc6ccc(C#N)c(Cl)c6)C5(C)C)cn4)C3)cc1)=N[C@@H](Cc1ncco1)c1nnc(C)n1-2 (stereo partly drawn)
-- reply > 3000 nM

-- ask Please look up its GI50: Cc1sc2c(c1C)C(c1ccc(Cl)cc1)=N[C@@H](CC(=O)NCCOCCOCCOC1CCN(c3ncc(C(=O)N[C@H]4C(C)(C)[C@H](Oc5ccc(C#N)c(Cl)c5)C4(C)C)cn3)C1)c1nnc(C)n1-2 (stereo partly drawn)
-- reply 1500 to 3000 nM

-- ask Please look up its GI50: Cc1sc2c(c1C)C(c1ccc(C3CC3C3CC4(CCN(c5ncc(C(=O)N[C@H]6C(C)(C)[C@H](Oc7ccc(C#N)c(Cl)c7)C6(C)C)cn5)CC4)C3)cc1)=N[C@H](Cc1ncco1)c1nnc(C)n1-2 (stereo partly drawn)
-- reply > 3000 nM

-- ask Please look up its GI50: Cc1sc2c(c1C)C(c1ccc(-c3csc(OC4CCN(c5ncc(C(=O)N[C@H]6C(C)(C)[C@H](Oc7ccc(C#N)c(Cl)c7)C6(C)C)cn5)CC4)n3)cc1)=N[C@@H](Cc1ncco1)c1nnc(C)n1-2
-- reply > 3000 nM

-- ask Please look up its GI50: Cc1sc2c(c1C)C(c1ccc(CC[C@H]3C[C@@]4(CCCN(c5ncc(C(=O)N[C@H]6C(C)(C)[C@H](Oc7ccc(C#N)c(Cl)c7)C6(C)C)cn5)C4)C3)cc1)=N[C@@H](C)c1nnc(C)n1-2
-- reply > 3000 nM

-- ask Please look up its GI50: Cc1sc2c(c1C)C(c1ccc(C(=O)N3CCN(Cc4ncc(C(=O)N[C@H]5C(C)(C)[C@H](Oc6ccc(C#N)c(Cl)c6)C5(C)C)cn4)CC3)cc1)=N[C@@H](Cc1ncco1)c1nnc(C)n1-2
-- reply > 3000 nM

-- ask Please look up its GI50: Cc1sc2c(c1C)C(c1ccc(CN(C)C(=O)[C@@H]3CC[C@@H](c4ncc(C(=O)N[C@H]5C(C)(C)[C@H](Oc6ccc(C#N)c(Cl)c6)C5(C)C)cn4)C3)cc1)=N[C@@H](Cc1ncco1)c1nnc(C)n1-2
-- reply > 3000 nM

-- ask Please look up its GI50: Cc1sc2c(c1C)C(c1ccc(OCCOCCOC3CCN(c4ncc(C(=O)N[C@H]5C(C)(C)[C@H](Oc6ccc(C#N)c(Cl)c6)C5(C)C)cn4)CC3)cc1)=N[C@@H](CC(=O)O)c1nnc(C)n1-2
-- reply > 3000 nM

-- ask Please look up its GI50: Cc1sc2c(c1C)C(c1ccc(C#CCC3CCN(c4ncc(C(=O)N[C@H]5C(C)(C)[C@H](Oc6ccc(C#N)c(Cl)c6)C5(C)C)cn4)CC3)cc1)=N[C@@H](Cc1ncco1)c1nnc(C)n1-2
-- reply < 500 nM

-- ask Please look up its GI50: COCC[C@@H]1N=C(c2ccc(N3CC(CC4CN(c5cnc(C(=O)N[C@H]6C(C)(C)[C@H](Oc7ccc(C#N)c(Cl)c7)C6(C)C)cn5)C4)C3)cc2)c2c(sc(C)c2C)-n2c(C)nnc21
-- reply < 500 nM

-- ask Please look up its GI50: Cc1sc2c(c1C)C(c1ccc(CCCOC3CCN(c4ncc(C(=O)N[C@H]5C(C)(C)[C@H](Oc6ccc(C#N)c(Cl)c6)C5(C)C)cn4)CC3)cc1)=N[C@H](Cc1cccnc1)c1nnc(C)n1-2
-- reply > 3000 nM

-- ask Please look up its GI50: Cc1sc2c(c1C)C(c1ccc(CCCOC3CCN(c4ncc(C(=O)N[C@H]5C(C)(C)[C@H](Oc6ccc(C#N)c(Cl)c6)C5(C)C)cn4)CC3)cc1)=N[C@@H](C)c1nnc(C)n1-2
-- reply 500 to 1500 nM

-- ask Please look up its GI50: Cc1sc2c(c1C)C(c1ccc(CNC(=O)CN(C)c3ncc(C(=O)N[C@H]4C(C)(C)[C@H](Oc5ccc(C#N)c(Cl)c5)C4(C)C)cn3)cc1)=N[C@@H](Cc1ncco1)c1nnc(C)n1-2
-- reply > 3000 nM

-- ask Please look up its GI50: Cc1sc2c(c1C)C(c1ccc(OC3CC4(C3)CC3(CCN(c5ncc(C(=O)N[C@H]6C(C)(C)[C@H](Oc7ccc(C#N)c(Cl)c7)C6(C)C)c(Cl)n5)CC3)C4)cc1)=N[C@@H](Cc1ncco1)c1nnc(C)n1-2
-- reply > 3000 nM

-- ask Please look up its GI50: Cc1sc2c(c1C)C(c1ccc(CC3CCC4(C3)CN(c3ncc(C(=O)N[C@H]5C(C)(C)[C@H](Oc6ccc(C#N)c(Cl)c6)C5(C)C)cn3)CCO4)cc1)=N[C@@H](C)c1nnc(C)n1-2 (stereo partly drawn)
-- reply 500 to 1500 nM
